SYSTEM UNDER TEST: eIF4E binding to m^7GTP RNA substrate (Homo sapiens)
Sequence (P06730 whole entry): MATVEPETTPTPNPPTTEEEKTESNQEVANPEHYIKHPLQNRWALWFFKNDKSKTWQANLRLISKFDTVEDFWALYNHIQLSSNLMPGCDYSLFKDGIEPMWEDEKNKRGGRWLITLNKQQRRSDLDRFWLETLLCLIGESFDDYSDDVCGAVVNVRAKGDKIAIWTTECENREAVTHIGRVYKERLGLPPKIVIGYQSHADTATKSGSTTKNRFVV
PROTOCOL SUMMARY: cell-based
PROTOCOL CONDITIONS: IC50 values as 95% confidence intervals, CRISPR RiPCA, 6-hour treatment
Some molecules, each annotated with its measured IC50.

1. CO[C@H]1C[C@@H]2CC[C@@H](C)[C@@](O)(O2)C(=O)C(=O)N2CCCC[C@H]2C(=O)O[C@H]([C@H](C)C[C@@H]2CC[C@@H](O)[C@H](OC)C2)CC(=O)[C@H](C)/C=C(\C)[C@@H](O)[C@@H](OC)C(=O)[C@H](C)C[C@H](C)/C=C/C=C/C=C/1C ... 1900 to 11000 nM

Alright, here's another molecule for you.
Documented IC50 of Cc1cc(-c2cc(Cl)ccc2OCCn2c(C)nc3cc(C(F)(F)F)cc(C#N)c3c2=O)c2scc(C(=O)O)c2n1 : 91 to 171 nM
